Attribution: patent US11702475B2

TEST_DESCRIPTION: Thermal stability of cysteine-NEM conjugates by DSC
Format: physicochemical
TEST_CONTEXT: second identical scan
READOUT_KIND: Second Scan Tm (°C)
Use °C as the unit, but write only the number.

These solved cases illustrate the format of a correct answer.
MOLECULE	UNIT_NAME	VAL
S30C: cysteine variant of P54AR4-83v2 (SEQ ID NOS: 196 and 234); NEM and VC-MMAF conjugates (conjugate, NEM or vcMMAF conjugate; EGFR binding FN3 domain, NEM and VC-MMAF conjugates) MLPAPKNLVVSEVTEDSARLSWDDPWAFYECFLIQYQESEKVGEAIVLTVPGSERSYDLTGLKPGTEYTVSIYGVHNVYKDTNMRGLPLSAIFTT	°C	71
P63C (conjugate, left off: small tags and cut ends) LPAPKNLVVSEVTEDSARLSWDDPWAFYESFLIQYQESEKVGEAIVLTVPGSERSYDLTGLKCGTEYTVSIYGVHNVYKDTNMRGLPLSAIFTT	°C	62

// Second Scan Tm lookup, molecule = L32C: cysteine variant of P54AR4-83v2; NEM and VC-MMAF conjugates (conjugate, left off: small tags and cut ends, cysteine variant of P54AR4-83v2; NEM and VC-MMAF conjugates) LPAPKNLVVSEVTEDSARLSWDDPWAFYESFCIQYQESEKVGEAIVLTVPGSERSYDLTGLKPGTEYTVSIYGVHNVYKDTNMRGLPLSAIFTT , result: 70

# molecule T48C: cysteine variant of P54AR4-83v2 (SEQ ID NOS: 203 and 241); NEM and VC-MMAF conjugates (conjugate, NEM or vcMMAF conjugate; EGFR binding FN3 domain, NEM and VC-MMAF conjugates) MLPAPKNLVVSEVTEDSARLSWDDPWAFYESFLIQYQESEKVGEAIVLCVPGSERSYDLTGLKPGTEYTVSIYGVHNVYKDTNMRGLPLSAIFTT ; its Second Scan Tm = 72

// sample V74C: cysteine variant of P54AR4-83v2; NEM and VC-MMAF conjugates (conjugate, left off: small tags and cut ends, cysteine variant of P54AR4-83v2; NEM and VC-MMAF conjugates) LPAPKNLVVSEVTEDSARLSWDDPWAFYESFLIQYQESEKVGEAIVLTVPGSERSYDLTGLKPGTEYTVSIYGCHNVYKDTNMRGLPLSAIFTT , its Second Scan Tm was 67

Note to self: Second Scan Tm recorded for N6C: cysteine variant of P54AR4-83v2 (printed SEQ ID NOS: 210 and 248); NEM and VC-MMAF conjugates (conjugate, NEM or vcMMAF conjugate; EGFR binding FN3 domain, NEM and VC-MMAF conjugates) MLPAPKCLVVSEVTEDSARLSWDDPWAFYESFLIQYQESEKVGEAIVLTVPGSERSYDLTGLKPGTEYTVSIYGVHNVYKDTNMRGLPLSAIFTT was 70
